This listing pairs compounds with measured MIC.
Tested on: Bacillus subtilis
measurement protocol: Antibacterial activity against Bacillus subtilis 1046 in presence of 5 mM Ca2+
Assay type: functional
assay readout: MIC (µg/mL)

{"columns": ["compound structure string", "reading"],
 "data": [
  ["CCCCCCCCCC(=O)N[C@@H](Cc1c[nH]c2ccccc12)C(=O)N[C@@H](CC(N)=O)C(=O)N[C@@H](CC(=O)O)C(=O)N[C@@H]1C(=O)NCC(=O)N[C@@H](CCCCN)C(=O)N[C@@H](CC(=O)O)C(=O)N[C@H](C)C(=O)N[C@@H](CC(=O)O)C(=O)NCC(=O)N[C@H](CO)C(=O)N[C@@H](CCC(=O)O)C(=O)N[C@@H](Cc2c[nH]c3ccccc23)C(=O)N[C@H]1C", 10],
  ["CCCCCCCCCC(=O)N[C@@H](Cc1c[nH]c2ccccc12)C(=O)N[C@@H](CC(N)=O)C(=O)N[C@@H](CC(=O)O)C(=O)N[C@@H]1C(=O)NCC(=O)N[C@@H](CCCCN)C(=O)N[C@@H](CC(=O)O)C(=O)N[C@H](C)C(=O)N[C@@H](CC(=O)O)C(=O)NCC(=O)N[C@H](CO)C(=O)N[C@@H](CCC(=O)O)C(=O)N[C@@H](Cc2c[nH]c3ccccc23)C(=O)O[C@@H]1C", 0.5],
  ["CCCCCCCCCC(=O)N[C@H](Cc1c[nH]c2ccccc12)C(=O)N[C@H](CC(N)=O)C(=O)N[C@@H](CC(=O)O)C(=O)N[C@H]1C(=O)NCC(=O)N[C@H](CCCCN)C(=O)N[C@H](CC(=O)O)C(=O)N[C@@H](C)C(=O)N[C@H](CC(=O)O)C(=O)NCC(=O)N[C@@H](CO)C(=O)N[C@H](CCC(=O)O)C(=O)N[C@H](Cc2c[nH]c3ccccc23)C(=O)O[C@H]1C", 100],
  ["CCCCCCCCCC(=O)N[C@@H](Cc1c[nH]c2ccccc12)C(=O)N[C@H](CC(N)=O)C(=O)N[C@@H](CC(=O)O)C(=O)N[C@@H]1C(=O)NCC(=O)N[C@@H](CCCN)C(=O)N[C@@H](CC(=O)O)C(=O)N[C@H](C)C(=O)N[C@@H](CC(=O)O)C(=O)NCC(=O)N[C@H](CO)C(=O)N[C@@H]([C@H](C)CC(=O)O)C(=O)N[C@@H](CC(=O)c2ccccc2N)C(=O)O[C@@H]1C", 0.5],
  ["CCCCCCCCCC(=O)N[C@@H](Cc1c[nH]c2ccccc12)C(=O)N[C@@H](CC(N)=O)C(=O)N[C@@H](CC(=O)O)C(=O)N[C@@H]1C(=O)NCC(=O)N[C@@H](CCCCN)C(=O)N[C@@H](CC(=O)O)C(=O)N[C@H](C)C(=O)N[C@@H](CC(=O)O)C(=O)NCC(=O)N[C@H](CO)C(=O)N[C@@H](CCC(=O)O)C(=O)N[C@@H](Cc2c[nH]c3ccccc23)C(=O)N[C@@H]1C", 10]
]}

Cited source: ChEMBL document CHEMBL4330090
